% Inhibition values by entry
- Tested on: Plasmodium falciparum
- ASSAY_DETAILS: Confirmatory screen in NF54 pLDH assay, in single point, at 2uM, 72h
- Format: functional, Erythrocyte
- CONDITION_CONTEXT: timepoint 72 hour
Hit rate of the full screen: of about 4,800 compounds, about 410 (8.5%) showed an effect of 50% or more. This is one part of a sample in which strong results are shown more often than they occur.

Please review the following examples before continuing.
CN(C)CC12CNCC1CN(c1ccnc3cc(Cl)ccc13)C2 (centres undefined) :: 97%
CN1CCN(c2ccc(C(F)(F)F)cc2NCc2cnc[nH]2)CC1 :: 92%
CN1C2CCC1CC(OC(=O)C1CCC(C(=O)OC3CC4CCC(C3)N4C)(c3ccccc3)c3ccccc31)C2 (centres undefined) :: 63%

# input for lookup
Memo: `CCN(C(C)=O)c1nc(CN2CC=C(c3c[nH]c4cc(F)ccc34)CC2)cs1` , reported % Inhibition: 20%
